# assay: MRT (0 to infinity) in mouse at 10 mg/kg, po
# Type: ADME, organism-based
# measurementSetup: in vivo
quantityMeasured: MRT inf (h)
Please respond with the number in h and leave the unit unwritten.

Given item `Cn1cc(Nc2nc(N)nc(-c3cccc(-n4ccc5cc(C6CC6)cc(F)c5c4=O)c3CO)n2)cn1` , the value recorded as its MRT inf is 1.56

* * *

# assay: MRT (0 to infinity) in rat at 1 mg/kg, iv
# Type: ADME, organism-based
# measurementSetup: in vivo
quantityMeasured: MRT inf (h)
Numbers only; they are read as h.

// field: MRT inf; key: `Cn1cc(Nc2nc(N)nc(-c3cccc(-n4ccc5cc(C6CC6)cc(F)c5c4=O)c3CO)n2)cn1` ; value = 1.79

* * *

# assay: AUC (0 to infinity) in mouse at 2 mg/kg, iv
# Assay type: ADME, organism-based
# Parameters: dose 2 mg/kg, time infinity, route intravenous
# measurementSetup: in vivo
quantityMeasured: AUC(0-inf) (ng·h/mL)
Give a bare numeral; the unit ng·h/mL is implied.

According to the records, this compound `Cn1cc(Nc2nc(N)nc(-c3cccc(-n4ccc5cc(C6CC6)cc(F)c5c4=O)c3CO)n2)cn1` displays AUC(0-inf) of 3110

* * *

# assay: Volume of distribution in rat at 1 mg/kg, iv
# Format: ADME, organism-based
# measurementSetup: in vivo
quantityMeasured: Vd (L/kg)
Response body: numeric value in L/kg, unit text excluded.

The compound identified as Cn1cc(Nc2nc(N)nc(-c3cccc(-n4ccc5cc(C6CC6)cc(F)c5c4=O)c3CO)n2)cn1 [SOFNOBRUTINIB] registered its Vd at 1.1

* * *

# assay: AUC (0 to t) in dog at 2 mg/kg, po
# Format: ADME, organism-based, Canis lupus familiaris
# measurementSetup: in vivo
quantityMeasured: AUC(0-t) (ng·h/mL)
The reply should contain only the number, in ng·h/mL.

What the record says about `Cn1cc(Nc2nc(N)nc(-c3cccc(-n4ccc5cc(C6CC6)cc(F)c5c4=O)c3CO)n2)cn1.O=S(=O)(O)O` : AUC(0-t) is 9850

* * *

# assay: MRT (0 to infinity) in mouse at 2 mg/kg, iv
# Type: ADME, organism-based
# measurementSetup: in vivo
quantityMeasured: MRT inf (h)
Quick note: give the figure in h, leave out the unit.

In plain terms, `Cn1cc(Nc2nc(N)nc(-c3cccc(-n4ccc5cc(C6CC6)cc(F)c5c4=O)c3CO)n2)cn1` has a documented MRT inf of 1.3

* * *

# assay: AUC (0 to infinity) in rat at 10 mg/kg, po
# Assay type: ADME, organism-based
# Parameters: dose 10 mg/kg, route oral, time infinity
# measurementSetup: in vivo
quantityMeasured: AUC(0-inf) (ng·h/mL)
Reply numerically in ng·h/mL, unit not repeated.

The compound `Cn1cc(Nc2nc(N)nc(-c3cccc(-n4ccc5cc(C6CC6)cc(F)c5c4=O)c3CO)n2)cn1` showed AUC(0-inf) equal to 8710

* * *

# assay: AUC (0 to t) in dog at 1 mg/kg, iv
# Assay type: ADME, organism-based, Canis lupus familiaris
# measurementSetup: in vivo
quantityMeasured: AUC(0-t)

Sure, the documented AUC(0-t) for `Cn1cc(Nc2nc(N)nc(-c3cccc(-n4ccc5cc(C6CC6)cc(F)c5c4=O)c3CO)n2)cn1.O=S(=O)(O)O` is 11300 ng·h/mL

* * *

# assay: AUC (0 to infinity) in dog at 1 mg/kg, iv
# Type: ADME, organism-based, Canis lupus familiaris
# Set-up: dose 1 mg/kg, time infinity, route intravenous
# measurementSetup: in vivo
quantityMeasured: AUC(0-inf) (ng·h/mL)
Numeric answer only, unit ng·h/mL assumed.

Looking up `Cn1cc(Nc2nc(N)nc(-c3cccc(-n4ccc5cc(C6CC6)cc(F)c5c4=O)c3CO)n2)cn1.O=S(=O)(O)O` , I see its AUC(0-inf) listed as 11500

* * *

# assay: AUC (0 to infinity) in dog at 2 mg/kg, po
# Type: ADME, organism-based, Canis lupus familiaris
# Design: dose 2 mg/kg, time infinity, route oral
# measurementSetup: in vivo
quantityMeasured: AUC(0-inf) (ng·h/mL)
Number only, in ng·h/mL; omit the unit.

Documented AUC(0-inf) of `Cn1cc(Nc2nc(N)nc(-c3cccc(-n4ccc5cc(C6CC6)cc(F)c5c4=O)c3CO)n2)cn1.O=S(=O)(O)O` : 10000

* * *

# assay: MRT (0 to infinity) in rat at 10 mg/kg, po
# Assay type: ADME, organism-based
# measurementSetup: in vivo
quantityMeasured: MRT inf

Form field MRT inf, entry `Cn1cc(Nc2nc(N)nc(-c3cccc(-n4ccc5cc(C6CC6)cc(F)c5c4=O)c3CO)n2)cn1` : 4.88 h

* * *

# assay: Tmax in rat at 10 mg/kg, po
# Type: ADME, organism-based
# measurementSetup: in vivo
quantityMeasured: Tmax (h)
Report only the number, with the unit h understood.

Tmax in this record for `Cn1cc(Nc2nc(N)nc(-c3cccc(-n4ccc5cc(C6CC6)cc(F)c5c4=O)c3CO)n2)cn1` : 2

* * *

Consider the following compounds and their measured solubility kinetic at 1 h readings.
# assay: Kinetic solubility of the compound incubated for 1 hr by LC-UV or LC-MS/MS analysis
# Format: physicochemical
# measurementSetup: read-out: Kinetic_solubility
Unit µM implied. Number only.

compound | quantitativeReadout
N#Cc1cc(Nc2nc(N)nc(-c3cccc(-n4ccc5cc(C6CC6)cc(F)c5c4=O)c3CO)n2)cn1C1CC1 | 4
Cn1cc(Nc2nc(N)nc(-c3cccc(-n4ccc5cc(C6CC6)cc(F)c5c4=O)c3CO)n2)cc1C#N | 0.67
CC(C)n1cc(Nc2nc(N)nc(-c3cccc(-n4ccc5cc(C6CC6)cc(F)c5c4=O)c3CO)n2)cc1C#N | 4.8
Nc1nc(Nc2ccc(N3CCOCC3)cc2)nc(-c2cccc(-n3ccc4cc(C5CC5)cc(F)c4c3=O)c2CO)n1 | 1.2
Nc1nc(Nc2cn[nH]c2)nc(-c2cccc(-n3ccc4cc(C5CC5)cc(F)c4c3=O)c2CO)n1 | 12
CC(C1CC1)n1cc(Nc2nc(N)nc(-c3cccc(-n4ccc5cc(C6CC6)cc(F)c5c4=O)c3CO)n2)cn1 (stereo not given) | 2
Cn1cc(Nc2nc(N)nc(-c3cccc(-n4ccc5cc(C6CC6)cc(F)c5c4=O)c3CO)n2)cn1 | 20
COCCOCCn1cc(Nc2nc(N)nc(-c3cccc(-n4ccc5cc(C6CC6)cc(F)c5c4=O)c3CO)n2)cc1C#N | 9.5

Memo: `CCn1cc(Nc2nc(N)nc(-c3cccc(-n4ccc5cc(C6CC6)cc(F)c5c4=O)c3CO)n2)cc1C#N` , reported solubility kinetic at 1 h: 0.71

Entry under test: `Nc1nc(Nc2cnn(C3CC3)c2)nc(-c2cccc(-n3ccc4cc(C5CC5)cc(F)c4c3=O)c2CO)n1` . Its solubility kinetic at 1 h was 4.7

* * *

# assay: Oral bioavailability in mouse at 10 mg/kg
# Assay type: ADME, organism-based
# measurementSetup: in vivo
quantityMeasured: bioavailability (%)
Response body: numeric value in %, unit text excluded.

Looking up `Cn1cc(Nc2nc(N)nc(-c3cccc(-n4ccc5cc(C6CC6)cc(F)c5c4=O)c3CO)n2)cn1` , I found its bioavailability recorded as 65.8

* * *

# assay: Cmax in rat at 10 mg/kg, po
# Format: ADME, organism-based
# Parameters: dose 10 mg/kg, route oral
# measurementSetup: in vivo
quantityMeasured: Cmax (ng/mL)
Output spec: scalar in ng/mL, unitless text.

Item: `Cn1cc(Nc2nc(N)nc(-c3cccc(-n4ccc5cc(C6CC6)cc(F)c5c4=O)c3CO)n2)cn1` | Cmax: 1480

* * *

# assay: Tmax in dog at 2 mg/kg, po
# Type: ADME, organism-based, Canis lupus familiaris
# measurementSetup: in vivo
quantityMeasured: Tmax
Number first, unit second: that is the form wanted.

The compound identified as `Cn1cc(Nc2nc(N)nc(-c3cccc(-n4ccc5cc(C6CC6)cc(F)c5c4=O)c3CO)n2)cn1.O=S(=O)(O)O` registered its Tmax at 2 h

* * *

# assay: Tmax in mouse at 10 mg/kg, po
# Format: ADME, organism-based
# measurementSetup: in vivo
quantityMeasured: Tmax (min)
Could you give me the number in min? Just the number is fine.

Just so you know, measured Tmax for `Cn1cc(Nc2nc(N)nc(-c3cccc(-n4ccc5cc(C6CC6)cc(F)c5c4=O)c3CO)n2)cn1` came out at 30

* * *

# assay: MRT (0 to infinity) in dog at 1 mg/kg, iv
# Assay type: ADME, organism-based, Canis lupus familiaris
# measurementSetup: in vivo
quantityMeasured: MRT inf (h)
Response body: numeric value in h, unit text excluded.

// `Cn1cc(Nc2nc(N)nc(-c3cccc(-n4ccc5cc(C6CC6)cc(F)c5c4=O)c3CO)n2)cn1.O=S(=O)(O)O` : MRT inf value = 3.31
